Target: human CCR7 (Homo sapiens, UniProt P32248)
Construct: expressed in transfected cells
Sequence (P32248 25-378): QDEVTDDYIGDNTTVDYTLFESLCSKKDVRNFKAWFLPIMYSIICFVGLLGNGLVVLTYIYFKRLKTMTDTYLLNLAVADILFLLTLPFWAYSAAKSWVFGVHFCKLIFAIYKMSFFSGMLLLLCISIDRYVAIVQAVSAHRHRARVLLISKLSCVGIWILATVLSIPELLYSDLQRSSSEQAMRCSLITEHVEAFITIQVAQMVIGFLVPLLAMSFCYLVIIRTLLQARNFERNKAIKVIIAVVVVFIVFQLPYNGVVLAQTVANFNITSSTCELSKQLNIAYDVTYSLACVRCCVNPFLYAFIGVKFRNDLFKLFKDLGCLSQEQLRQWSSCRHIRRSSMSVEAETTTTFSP
Assay: CCL19-induced calcium mobilization assay, U87.CD4 cells expressing CCR7
Format: cell-based
Settings: inhibition of CCL19 induced intracellular calcium flux; Mean ± SD of at least three independent experiments; read-out: Calcium assay IC50

{"smiles_input": "FC(F)(F)c1cc(NC(=S)Nc2cc(C(F)(F)F)cc(C(F)(F)F)c2)cc(C(F)(F)F)c1", "tested_target": "human CCR7 (Homo sapiens, UniProt P32248)", "IC50": "3 to 18 µM"}

====

Biological target: human CCR7 (Homo sapiens)
Construct: expressed in transfected cells
Sequence (P32248 25-378): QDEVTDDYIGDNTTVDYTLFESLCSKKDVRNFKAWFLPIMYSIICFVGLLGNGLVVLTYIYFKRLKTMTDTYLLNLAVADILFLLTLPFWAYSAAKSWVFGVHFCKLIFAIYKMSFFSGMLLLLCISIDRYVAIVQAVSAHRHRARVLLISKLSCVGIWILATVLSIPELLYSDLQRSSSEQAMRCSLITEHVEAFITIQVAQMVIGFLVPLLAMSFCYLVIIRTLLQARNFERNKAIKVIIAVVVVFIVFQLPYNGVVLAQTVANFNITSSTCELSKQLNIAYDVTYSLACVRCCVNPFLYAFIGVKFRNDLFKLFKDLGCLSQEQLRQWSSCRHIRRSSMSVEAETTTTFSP
Experiment: CCL19-induced calcium mobilization assay, U87.CD4 cells expressing CCR7
Format: cell-based
Settings: CCL19-induced calcium signaling; read-out: IC50 [μM] block CCL19 induced calcium signaling
This section presents molecules with their documented IC50 values.

{"molecule": "CC(=O)c1cccc(NC(=O)NC(c2ccc(C)o2)C(C)(C)C)c1 (centres unmarked)", "IC50": "> 10 µM"}
{"molecule": "C[C@@H](CNC(=O)N[C@H]1CCC[C@@H](S(C)(=O)=O)C1)c1cccs1", "IC50": "> 50 µM"}
{"molecule": "Cc1ccc(N=C(N)C(N)=Nc2ccc(C)cc2)cc1", "IC50": "> 10 µM"}
{"molecule": "O=C(NCc1ccccn1)c1cn2c(n1)C(=O)N(CC1CC1)CC2", "IC50": "> 50 µM"}
{"molecule": "CCOC(=O)CNC(=S)Nc1ncccc1C", "IC50": "> 30 µM"}

====

This section presents molecules with their documented IC50 values.
Molecular target: human CCR7 (Homo sapiens, UniProt P32248)
Construct: expressed in transfected cells
Sequence (P32248 25-378): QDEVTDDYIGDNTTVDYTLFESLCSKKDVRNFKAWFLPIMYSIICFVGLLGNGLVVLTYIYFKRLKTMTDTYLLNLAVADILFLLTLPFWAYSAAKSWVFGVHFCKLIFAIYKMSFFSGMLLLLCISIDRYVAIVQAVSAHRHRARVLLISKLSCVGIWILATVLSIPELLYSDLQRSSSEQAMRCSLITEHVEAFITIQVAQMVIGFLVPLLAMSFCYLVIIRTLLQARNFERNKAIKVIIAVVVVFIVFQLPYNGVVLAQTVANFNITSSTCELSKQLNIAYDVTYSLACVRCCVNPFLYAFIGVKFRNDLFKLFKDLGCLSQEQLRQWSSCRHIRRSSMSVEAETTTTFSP
Test: CCL19-induced calcium mobilization assay, U87.CD4 cells expressing CCR7
Format: cell-based
Conditions: CCL19-induced calcium signaling; read-out: IC50 [μM] block CCL19 induced calcium signaling
Method: U87.CD4 cells that stably express either human CCR7, CXCR2, CCR5 or CXCR4 were seeded (20,000 cells/well) in gelatin-coated black-walled polystyrene 96-well plates with clear bottom and incubated overnight at 37°C and 5% CO2. […] Culture medium was removed, and cells were incubated for 45 min at room temperature in the dark. […]
readout_label: IC50

{"smiles_input": "CN(C)[C@H]1CCCC[C@@H]1Nc1c(NCc2cc(C(F)(F)F)cc(C(F)(F)F)c2)c(=O)c1=O", "readout_label": "IC50", "val": "> 50 µM"}
{"smiles_input": "COC(=O)c1sccc1Nc1c(NC2CCCCC2)c(=O)c1=O", "readout_label": "IC50", "val": "> 50 µM"}
{"smiles_input": "CN(C)C(=O)c1ccc(CN2CCCC[C@H]2CCn2cccn2)o1", "readout_label": "IC50", "val": "> 50 µM"}
{"smiles_input": "CCOC(=O)NC(=S)Nc1ccc2nsnc2c1", "readout_label": "IC50", "val": "> 30 µM"}
